- procedureSummary: yeast display, Sf9 membrane polyspecificity reagent, FACS + sequencing; frameworks hold sequencing errors
assayReadout: polyreactivity (PSR sort gate)

INSERT INTO assay_data (sequenceinput, measurement) VALUES
  ('QVQLVESVGGLVQAGGSLRLSCAASGSIFKYYAMGWYRQEPGKERELVAAITIGGNTNYADSVKGRFTISRDNAKNTVYLQMNSLKPEDTAVYYCATGGYYSAIVYGGYDYWGQGTQVSVSS', 'low polyreactivity'),
  ('QVQLVESGGGLVQAGGSLRLSCAASGITFIQYAMGWYRQAPGKERELVAAISSGGRTYYADSVKGRFTISRDNAKNTVYLQMNSLKPEDTAVYYCARDIQHYGGDSWGQGTQVTVSS', 'low polyreactivity');

---

- procedureSummary: yeast display, Sf9 membrane polyspecificity reagent, FACS + sequencing; frameworks hold sequencing errors
assayReadout: polyreactivity (PSR sort gate)

Please review the following examples before continuing.
INSERT INTO measurements (sequenceinput, measurement) VALUES
  ('QVQLVESGGGLVQAGGSLRLSCAASGRIYRINALGWYRQAPGKERELVATITSGGGSTYADSVKGRFTISRDNAKNTVYLQMNSLKPEDTAVYFCAARSRIGRYTYDYWGQGTQVTVSS', 'high polyreactivity'),
  ('QVQLVESGGGLVQAGGSLRLSCAASGSILTDNAMRWYRQAPGKERELVAAITSGGYTYYADSVKGRFTISRDNAKNTVYLHMNILKPEDTAVYYCNADPYTYSYGMYYWGQGTQVTVSS', 'low polyreactivity'),
  ('QVQLVESGGGLVQAGGSLRLSCAASGSIFEGNTMGWYRQAPGKERELVASISSTANTYYADSVKGRFTLSRDNAKKNVYLQMNSLKPEDTAVYYCNVARYFLVPVVDDNYWGQGTQVTVSS', 'low polyreactivity'),
  ('QVQLVESGGGFGQAGGSLRLSCAASGFTCGYYAMGWFRQAPGKERELVASISSRGGSTNYADSVKGRFTISRDHAKNTVYLQMNTMKPEDTAVYYCAAEYYRQRYEYDYWRQGTQVTVSS', 'high polyreactivity');

Here is the next item to consider.
Query :: Query: polyreactivity (PSR sort gate); subject: `QVQLVESGGGLDQAGGSLRLSCAASGSILPYYAMGWYRQAPGKERELVATITDGTDTYYADSVKGRFTFSRDNAKNTVYLQMNSLKQEDTAVYYCDRKQYWGYDYWGQGTQVTVSS`
Result :: low polyreactivity

---

- procedureSummary: yeast display, Sf9 membrane polyspecificity reagent, FACS + sequencing; frameworks hold sequencing errors
assayReadout: polyreactivity (PSR sort gate)

Here's what some known entries look like.
INSERT INTO results (sequenceinput, assayreadout, measurement) VALUES
  ('QVQLVESGGCLVQARGSLRLSCASSGRMISYNAMGWYRQRPGKDMELGAAINSSGGSTYDADSVKGRFTISRDNAKNTVSLQMNSLKAEDTAFYYCNVLHIPSTTMDYWPQGTQVTVSS', 'polyreactivity (PSR sort gate)', 'high polyreactivity'),
  ('QVQLVESGGGLVQAGGSLRLSCAASGFIFPTYAMGWYRQAPGKEREFVASITRRGGSTYYADSVKGRFTISRDNAKNTVYLQMNSLKPEDTAVYYCAAGYYGFRGGGSDYWGQGTQVTVSS', 'polyreactivity (PSR sort gate)', 'high polyreactivity'),
  ('QVQLVESGGCLVQAGGSLRLSCAASGRIFDRNAMGWYRQAPGKERELVARIDPGDDTNYADSVKGRFTISRDNAKNTVYLQMNSLKPEDTAVYYCATDPDYVLYRTAYYEYDYWGQGTQVTVSS', 'polyreactivity (PSR sort gate)', 'low polyreactivity'),
  ('QVQLVESGGGLVQAGGSLRLSCAASGRIIPGNAMGWYRQAPGKERELVAAISWGGGSTYYADSVKGRFTISRDNAKNTVYLQMNSLKPEDTAVYYCNAGVSIGRSRRYDYWGQGTQVTVSS', 'polyreactivity (PSR sort gate)', 'low polyreactivity');

Now for the sequence whose polyreactivity (PSR sort gate) we want.
Query :: Item under review: `QVQLVESGGGLVQAGGSLRLSGAASGFIFIHYAMGWYRQAPGKERELVAAIRASGTSTYYADSVKGRFTISRDNAKNTVYLQMNSLKPEDTAVYYCAAQGYLRLRTHFNYWGQGTQVTLSS` . Reported polyreactivity (PSR sort gate)?
Result :: low polyreactivity

---

- procedureSummary: yeast display, Sf9 membrane polyspecificity reagent, FACS + sequencing; frameworks hold sequencing errors
assayReadout: polyreactivity (PSR sort gate)

INSERT INTO results (sequenceinput, measurement) VALUES
  ('QVHIVESGGGLVQAGGSLRLSCADSGSIFLSNVMGSYRQAPGKERELVDDITRSGGSTYYADSVKGRFTISRDNAKNTVYLQMNSLKPEDTAVYYCNAYEYLSAGYDYWGQGTQVTVSS', 'low polyreactivity'),
  ('QVQLVESGGGLVQAGGSLRLSCAASGSIFGYNTMGWYRQAPGKERELVAAISYSGGRTYYADSVKGRFTISRDNAKNTVYVQMNSLKPEDTAVYYCAADFYFRRGTDYDYWGQGTQVTVSS', 'high polyreactivity'),
  ('QVQLVESGGGLVQAGGSLRLSCAASGFTLRSNVMGWSRQAPGKERELVAGISQSGGRTFYADSVKGRFTISRDNAKNTVYLQMNSLKPEDTAVYYCAARRYAVEGSKNYYWGQGTQVTVSS', 'low polyreactivity'),
  ('QVQLVESGGGLVQAGGSLRLSCAASGSTFGSYGMGWYRQAPGKERELVAVITYSGDRTYYADSVKGRFTISRDNAKNTVYLQMNSLKPEDTAVYYCAADRSYRVSEYDYWGQGTQVTVSS', 'low polyreactivity'),
  ('QVQLVESGGGLVQAGGSLRLSCAASGSTFSDYAMGWYRQAPGKERELVAAISGGGTTDYADSVKGRFTISRDNAKNTVYLQMNSLKPEDTAVYYCNKPVEGSFLPYSYLRFDYWGQGTHVTVSS', 'low polyreactivity');

Query :: Fill blank: measured polyreactivity (PSR sort gate) of the sequence `QVQLVESGGGLVQAGGSLRLSCAASGRTFKDYAMGWYRQAPGKERELVAAISWSGGDTYYADSVKGRVTISRDNAKNTVYLQMNSLKPEDTAVYYCNADPSGVFFYSLEFDYWGQGTQVTVSS` is ____.
Result :: low polyreactivity

Query :: Quick one: polyreactivity (PSR sort gate) of `QVQLVESGAGLVQARGSLRLSCAPSGRNFTYYAMGWYRQAPGTETELVAAISWSGGRTYYADSVKGRFTISRDNAKNTVYLKMNSLKPEDTAVYYCAADYYAFKFGRFDYWGQGTQVTVSS` ?
Result :: high polyreactivity

Query :: Need polyreactivity (PSR sort gate) of `QVQLVESGGGLVQAGGSLRLSCAASGSIFYYYVRGWYRQAPGKEREFVAAISWGGDSTYYADSVKGRFTISRDNAKNTFYLQMNSLQPEDTAVYYCNADYPWSVVGYDYWAQGTQVTVSS` , thanks.
Result :: low polyreactivity

Query :: Recorded polyreactivity (PSR sort gate) for `QVQLVQSCGCLVQAGGSLRLSCAASGRIFYGNDMGWNRQAPGKERDLVAAISSGTSTNYADSVKGRFTISRDNAMNTVYLQMNSLKPEVTAVYYWAAGSYSRYLYSLYFDFDYWGQGSQVTVSS` , please?
Result :: low polyreactivity

Query :: I'd like to know its polyreactivity (PSR sort gate). The sequence in question is `QVQLVESGGGLVQAGGSLRLSCAASGSIFFGYAMGWYRQAPGKERELVATITSSGGITYYADSVKGRFTISRDNAKNTVYLQMNSLKPEDTAVYYCATYYYYTYDYWGQGTQVTVSS`
Result :: low polyreactivity

Query :: Recorded polyreactivity (PSR sort gate) for `QVQLVESGGGLVQAGGSLRLSCAASGYIFGYYAMGWYRQAPGKERELVAAISTDGSTDYADSVKGRFTISRDNAKKTVYLQMNSLKPEDTAVYYCAKELFIVTNGVYIYDSWGQGTQVTVSS` , please?
Result :: low polyreactivity

Query :: Would you kindly share the measured polyreactivity (PSR sort gate) for `QVQLVESGGGIVQAGGSLRLSCAASGFTFFIYTMGWYRQAPGKERELVAAIRSRTGSTYYADSVKGRITISRDNAKNTVYLQMNSLKPDDTAVYYCAATRVRSASYSIEYDYWGQGTQVTVSS` ?
Result :: high polyreactivity

Query :: Name the reported polyreactivity (PSR sort gate) value associated with the sequence `QVQLVESGGGLVQAGGSLRLSCAASGSIFDFNTMGWYIQAPGKERELVAAISQRTGRTYYADSVKGRFTISRDKAKNTVYLQMNSLKPEDTAVYYCAKVAVAGRGSGNYINHRFEYWGQGTQVTVSS`
Result :: high polyreactivity

Query :: Any idea what polyreactivity (PSR sort gate) was measured for `QVQLVESGGGLVQAGGSLRLSCAASGSIFPSYAMGWYRQAPGKERELVATISGSGTRTYYADSVKGRFTISRDNAKYTFYLQMNSLKPEDTAVYYCAAETHVESGSRDFYTEDYWGQGTQVTVSS` ?
Result :: low polyreactivity

Query :: Look up polyreactivity (PSR sort gate): `QVQLVESGGGLVQAGGSLRLSCAASGITFPRYAMGWYRQAPGKERELVAAISKSGGRTYYADSVKGRFTISRDNAKNTVYLQMISLKPEDTAVYYCAADPLLGYLSHYYWGQGTQVTVSS`
Result :: high polyreactivity

Query :: Which polyreactivity (PSR sort gate) value is on record for `QVQLVETGGGLVQAGGSLRLSCAASGFIFRKYAMGWYRQAPGKERELVAAITASGGSTYYADSVKGRFTISRDNAKNTVYLQMNSLKPEDTAVYYCATDYHGAERWLKYVYWGQGTQVTVSS` ?
Result :: high polyreactivity

Data origin: the nanobody polyreactivity screen of Harvey et al. (2022)
